Listing: Srxn1-GFP intensity median modified Z-score of selected compounds
System: HepG2 Srxn1-GFP reporter cells (+30 nM CDDO-Me)
Assay: Srxn1-GFP intensity median modified Z-score relative to plate median; higher = stronger NRF2 / oxidative stress reporter activation, active = hit call of the paper
Conditions: 10 µM; exposure time: 24h
Hit rate of the full screen: of about 2,300 compounds, about 330 (14%) showed activity. These entries were drawn from the full list.
Metric name: Srxn1-GFP intensity median modified Z-score

>>> value_reported("CCC(=O)O[C@H]1CCC2C3CC=C4CC(=O)CC[C@]4(C)C3CC[C@@]21C (stereo partly drawn) [euspeclibcmpd7]")
0.269
>>> value_reported("O=C1C=CC(=O)c2c(O)cccc21 [euspeclibcmpd1492]")
0.761
>>> value_reported("O=C(COc1ccc(Br)cc1Cl)N1CCN(Cc2ccc3c(c2)OCO3)CC1")
0.363

* * *

Recorded Srxn1-GFP intensity median modified Z-score values for a group of compounds are listed next.
Tested on: HepG2 Srxn1-GFP reporter cells (+30 nM CDDO-Me)
Test: Srxn1-GFP intensity median modified Z-score relative to plate median; higher = stronger NRF2 / oxidative stress reporter activation, active = hit call of the paper
Details: 10 µM; exposure time: 24h
The campaign covered roughly 2,300 compounds. About 330 (14%) showed activity. Not all results are given here.
Metric name: Srxn1-GFP intensity median modified Z-score

>>> value_reported("c1ccc(/N=N\\c2ccccc2)cc1 [euspeclibcmpd1762]")
0.733
>>> value_reported("CCC(N)C(O)c1ccc(O)c(O)c1 (stereo unspecified) [euspeclibcmpd646]")
-0.33
>>> value_reported("NNCc1ccccc1 [euspeclibcmpd1327]")
0.32
>>> value_reported("C=C(C)c1cc2cc(C(C)=O)c(O)cc2o1 [euspeclibcmpd1716]")
10.1
>>> value_reported("CC1=NCCc2c1[nH]c1cc(O)ccc21 [euspeclibcmpd2357]")
7.71
>>> value_reported("CC(C)=CC1C(C(=O)OCc2cccc(Oc3ccccc3)c2)C1(C)C (stereo unspecified) [euspeclibcmpd1161]")
-0.28
>>> value_reported("CS(=N)(=O)CCC(N)C(=O)O (stereo unspecified) [euspeclibcmpd1752]")
-0.455
>>> value_reported("CC[C@H](c1cccc(O)c1)[C@@H](C)CN(C)C [euspeclibcmpd2238]")
-0.41
>>> value_reported("O=[N+]([O-])C(Br)(CO)CO [euspeclibcmpd2257]")
6.25
>>> value_reported("Cc1cc(OC(=O)N2CCCCC2)c(C(C)C)cc1[N+](C)(C)C [euspeclibcmpd1842]")
0.636
>>> value_reported("O=C1CCCC2C3C[C@H](CN12)[C@@H]1CCCCN1C3 (stereo partly specified) [euspeclibcmpd1695]")
-0.101
